Recorded measurements of MIC of antibiotic in presence of adjuvant, one per entry
# System: A. baumannii R674
# ASSAY METHOD TEXT: Chequerboard combination efficacy of adjuvant with antibiotics
# Format: cell-based
# EXPERIMENTAL PARAMETERS: antibiotic Rifampicin
QUANTITY KIND: MIC of antibiotic in presence of adjuvant (µg/mL)

# COMPOUND, MEASUREMENT QUALIFIER, READOUT VALUE
records = [
    ("NCCCN(CCCN)C(=O)c1ccc(-c2ccccc2)cc1.O=C(O)C(F)(F)F.O=C(O)C(F)(F)F [Compound 3]", "=", 16),
    ("NCCCN(CCCN)C(=O)Cc1ccccc1.O=C(O)C(F)(F)F.O=C(O)C(F)(F)F [Compound 1]", "=", 32),
    ("CC(C)(C)OC(=O)NC(Cc1c[nH]c2ccccc12)C(=O)N(CCCN)CCCN.O=C(O)C(F)(F)F.O=C(O)C(F)(F)F.O=C(O)C(F)(F)F (stereo not drawn) [Compound 5]", "=", 8),
    ("NCCCC[C@H](N)C(=O)NCCCCCCN(CCCCCCNC(=O)[C@@H](N)CCCCN)C(=O)Cc1cccc2ccccc12 [Compound 13]", "=", 1),
    ("NCCCC[C@H](N)C(=O)NCCCN(CCCNC(=O)[C@@H](N)CCCCN)CC(=O)NC1C2CC3CC(C2)CC1C3.O=C(O)C(F)(F)F.O=C(O)C(F)(F)F.O=C(O)C(F)(F)F.O=C(O)C(F)(F)F.O=C(O)C(F)(F)F (stereo partly drawn) [Compound 9]", "=", 1),
    ("NCCCC[C@H](N)C(=O)NCCCN(CCCNC(=O)[C@@H](N)CCCCN)C(=O)CC(c1ccccc1)c1ccccc1 [Compound 8]", "=", 4),
    ("NCCCC[C@H](N)C(=O)NCCCCCCN(CCCCCCNC(=O)[C@@H](N)CCCCN)CC(=O)NC1C2CC3CC(C2)CC1C3 (stereo partly drawn) [Compound 15]", "=", 0.25),
    ("NCCCN(CCCN)C(=O)Cc1cccc2ccccc12.O=C(O)C(F)(F)F.O=C(O)C(F)(F)F [Compound 2]", "=", 8),
    ("NCCCC[C@H](N)C(=O)NCCCN(CCCNC(=O)[C@@H](N)CCCCN)C(=O)Cc1cccc2ccccc12 [Compound 7]", "=", 8),
    ("NCCCN(CCCN)CC(=O)NC1C2CC3CC(C2)CC1C3.O=C(O)C(F)(F)F.O=C(O)C(F)(F)F.O=C(O)C(F)(F)F (stereo not drawn) [Compound 6]", "<", 0.25),
    ("NCCCCCCN(CCCCCCN)C(=O)CC(c1ccccc1)c1ccccc1.O=C(O)C(F)(F)F.O=C(O)C(F)(F)F [Compound 11]", "=", 0.5),
    ("NCCCC[C@H](N)C(=O)NCCCCCCN(CCCCCCNC(=O)[C@@H](N)CCCCN)C(=O)CC(c1ccccc1)c1ccccc1 [Compound 14]", "<", 0.125),
    ("NCCCCCCN(CCCCCCN)C(=O)Cc1cccc2ccccc12 [Compound 10]", "=", 1),
    ("NCCCCCCN(CCCCCCN)CC(=O)NC1C2CC3CC(C2)CC1C3.O=C(O)C(F)(F)F.O=C(O)C(F)(F)F.O=C(O)C(F)(F)F (stereo not drawn) [Compound 12]", "<", 0.125),
    ("NCCCN(CCCN)C(=O)CC(c1ccccc1)c1ccccc1.O=C(O)C(F)(F)F.O=C(O)C(F)(F)F [Compound 4]", "=", 1),
]

* * *

# Test system: A. baumannii R674
# ASSAY METHOD TEXT: Individual antibacterial activity (MIC) of adjuvants
# Assay type: cell-based
# EXPERIMENTAL PARAMETERS: adjuvant alone; A. baumannii R674
Listed next: entries and their corresponding MIC against clinical isolates of bacteria.
QUANTITY KIND: MIC against clinical isolates of bacteria

# COMPOUND, TARGET OR SYSTEM, READOUT VALUE
records = [
    ("NCCCC[C@H](N)C(=O)NCCCN(CCCNC(=O)[C@@H](N)CCCCN)CC(=O)NC1C2CC3CC(C2)CC1C3.O=C(O)C(F)(F)F.O=C(O)C(F)(F)F.O=C(O)C(F)(F)F.O=C(O)C(F)(F)F.O=C(O)C(F)(F)F (stereo partly drawn) [Compound 9]", "A. baumannii R674", ">512 mg/L"),
    ("NCCCN(CCCN)C(=O)Cc1cccc2ccccc12.O=C(O)C(F)(F)F.O=C(O)C(F)(F)F [Compound 2]", "A. baumannii R674", ">512 mg/L"),
    ("NCCCC[C@H](N)C(=O)NCCCN(CCCNC(=O)[C@@H](N)CCCCN)C(=O)CC(c1ccccc1)c1ccccc1 [Compound 8]", "A. baumannii R674", ">512 mg/L"),
]

* * *

We begin with a simple list: items and their reported Potentiation factor.
# Test system: P. aeruginosa R590
# ASSAY METHOD TEXT: Chequerboard combination efficacy of adjuvant with antibiotics
# Format: cell-based
# EXPERIMENTAL PARAMETERS: antibiotic Tetracycline; P. aeruginosa R590
QUANTITY KIND: Potentiation factor

# MOLECULE, READOUT VALUE
data = [
    ("CC(C)(C)OC(=O)NC(Cc1c[nH]c2ccccc12)C(=O)N(CCCN)CCCN.O=C(O)C(F)(F)F.O=C(O)C(F)(F)F.O=C(O)C(F)(F)F (stereo not drawn)", "<4"),
    ("NCCCN(CCCN)CC(=O)NC1C2CC3CC(C2)CC1C3.O=C(O)C(F)(F)F.O=C(O)C(F)(F)F.O=C(O)C(F)(F)F (stereo not drawn)", "<4"),
    ("NCCCN(CCCN)C(=O)c1ccc(-c2ccccc2)cc1.O=C(O)C(F)(F)F.O=C(O)C(F)(F)F", "<4"),
]
